# Test target: STK4 (Homo sapiens, UniProt Q13043)
# Sequence (Q13043 whole entry): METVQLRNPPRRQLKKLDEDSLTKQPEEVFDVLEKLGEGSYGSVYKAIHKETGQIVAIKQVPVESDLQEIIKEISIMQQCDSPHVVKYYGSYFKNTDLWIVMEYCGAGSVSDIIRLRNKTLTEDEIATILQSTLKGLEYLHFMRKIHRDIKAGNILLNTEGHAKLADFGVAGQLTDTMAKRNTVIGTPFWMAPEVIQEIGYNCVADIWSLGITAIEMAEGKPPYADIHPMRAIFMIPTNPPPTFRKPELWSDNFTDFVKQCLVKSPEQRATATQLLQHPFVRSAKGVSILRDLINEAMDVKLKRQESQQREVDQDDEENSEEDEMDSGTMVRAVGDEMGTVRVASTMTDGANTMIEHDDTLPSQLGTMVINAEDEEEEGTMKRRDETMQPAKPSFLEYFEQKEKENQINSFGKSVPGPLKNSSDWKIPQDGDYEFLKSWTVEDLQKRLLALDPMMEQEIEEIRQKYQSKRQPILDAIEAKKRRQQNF
# Test: biochemical
# Set-up: species or system HEK293/K-562/placenta mixed human extract; Kinobeads chemoproteomic competition binding, quantified by TMT LC-MS/MS, dose response up to 20 uM
Reported endpoint: IC50

item_smiles=COc1nc(N[C@H]2CC[C@H](NS(=O)(=O)CC(C)C)CC2)nc2[nH]nc(N3CCOC[C@H]3C)c12 recorded_result="≥ 20 µM"

---

# Test target: FLT4 (Homo sapiens, UniProt P35916)
# Sequence (P35916 whole entry): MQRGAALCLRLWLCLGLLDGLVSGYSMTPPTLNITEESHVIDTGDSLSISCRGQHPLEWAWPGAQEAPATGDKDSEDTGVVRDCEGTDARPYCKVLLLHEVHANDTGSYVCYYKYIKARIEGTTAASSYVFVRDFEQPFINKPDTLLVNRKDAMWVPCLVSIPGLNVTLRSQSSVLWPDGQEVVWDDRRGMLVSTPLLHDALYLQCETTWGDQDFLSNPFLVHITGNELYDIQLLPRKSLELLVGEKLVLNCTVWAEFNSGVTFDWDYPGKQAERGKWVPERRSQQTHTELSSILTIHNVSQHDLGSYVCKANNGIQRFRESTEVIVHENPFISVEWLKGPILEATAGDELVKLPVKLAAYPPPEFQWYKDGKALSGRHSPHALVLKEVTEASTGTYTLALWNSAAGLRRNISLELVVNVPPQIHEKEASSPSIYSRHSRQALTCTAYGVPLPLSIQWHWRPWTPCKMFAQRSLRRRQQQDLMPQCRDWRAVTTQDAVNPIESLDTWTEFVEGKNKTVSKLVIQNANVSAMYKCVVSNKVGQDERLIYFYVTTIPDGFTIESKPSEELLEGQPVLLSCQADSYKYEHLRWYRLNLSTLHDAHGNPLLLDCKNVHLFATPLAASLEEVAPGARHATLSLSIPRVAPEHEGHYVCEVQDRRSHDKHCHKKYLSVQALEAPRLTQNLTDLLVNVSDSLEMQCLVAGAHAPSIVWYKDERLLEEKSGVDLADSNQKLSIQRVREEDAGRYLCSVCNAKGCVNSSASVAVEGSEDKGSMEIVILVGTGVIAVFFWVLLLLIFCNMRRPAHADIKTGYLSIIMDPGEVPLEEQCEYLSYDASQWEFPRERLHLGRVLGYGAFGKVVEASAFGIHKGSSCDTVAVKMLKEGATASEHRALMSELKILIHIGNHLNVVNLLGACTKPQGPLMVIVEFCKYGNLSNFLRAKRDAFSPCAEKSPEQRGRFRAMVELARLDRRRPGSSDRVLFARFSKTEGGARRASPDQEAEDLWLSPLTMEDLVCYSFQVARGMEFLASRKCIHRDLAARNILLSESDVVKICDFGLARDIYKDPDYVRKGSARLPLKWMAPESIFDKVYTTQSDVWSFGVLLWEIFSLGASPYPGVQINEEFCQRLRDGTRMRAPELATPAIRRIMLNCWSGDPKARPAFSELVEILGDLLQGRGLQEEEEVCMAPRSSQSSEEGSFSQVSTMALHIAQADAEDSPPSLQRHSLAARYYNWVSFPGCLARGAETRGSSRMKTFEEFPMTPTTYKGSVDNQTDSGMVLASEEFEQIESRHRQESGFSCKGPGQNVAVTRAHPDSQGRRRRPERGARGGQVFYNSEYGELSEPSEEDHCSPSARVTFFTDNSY
# Test: biochemical
# Design: species or system HEK293/K-562/placenta mixed human extract; Kinobeads chemoproteomic competition binding, quantified by TMT LC-MS/MS, dose response up to 20 uM
Reported endpoint: IC50

molecule="COc1ccccc1-c1n[nH]c2nc(N[C@H]3CC[C@H](NS(=O)(=O)CCC(F)(F)F)CC3)nc(OC)c12 [compound 31]" recorded_result="≥ 20 µM"

---

# Test target: CSNK2B (Homo sapiens, UniProt P67870)
# Test: biochemical
# Parameters: species or system HEK293/K-562/placenta mixed human extract; Kinobeads chemoproteomic competition binding, quantified by TMT LC-MS/MS, dose response up to 20 uM
Reported endpoint: IC50

item_smiles=COc1nc(N[C@H]2CC[C@H](NS(=O)(=O)CC(C)C)CC2)nc2[nH]nc(N3CCOC[C@H]3C)c12 reported_endpoint=IC50 recorded_result="≥ 20 µM"

---

# Test target: ULK3 (Homo sapiens, UniProt Q6PHR2)
# Sequence (Q6PHR2 whole entry): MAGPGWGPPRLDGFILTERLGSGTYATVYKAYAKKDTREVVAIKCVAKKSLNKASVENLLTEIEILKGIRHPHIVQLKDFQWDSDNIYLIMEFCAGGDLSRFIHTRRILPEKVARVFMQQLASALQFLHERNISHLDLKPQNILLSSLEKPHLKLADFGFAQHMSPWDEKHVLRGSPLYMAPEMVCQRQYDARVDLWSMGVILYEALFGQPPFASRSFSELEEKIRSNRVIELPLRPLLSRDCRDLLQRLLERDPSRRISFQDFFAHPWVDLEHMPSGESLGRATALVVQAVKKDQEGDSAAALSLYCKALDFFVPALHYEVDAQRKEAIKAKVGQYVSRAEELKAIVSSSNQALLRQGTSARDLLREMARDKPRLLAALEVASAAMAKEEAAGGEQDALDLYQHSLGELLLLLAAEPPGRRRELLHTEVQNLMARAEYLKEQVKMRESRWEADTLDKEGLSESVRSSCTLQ
# Test: biochemical
# Parameters: species or system HEK293/K-562/placenta mixed human extract; Kinobeads chemoproteomic competition binding, quantified by TMT LC-MS/MS, dose response up to 20 uM
pIC50: −log10 of the molar value.
Reported endpoint: pIC50

compound="COc1nc(N[C@H]2CC[C@H](NS(=O)(=O)CC(C)C)CC2)nc2[nH]nc(N3CCOC[C@H]3C)c12 [compound 39]" reported_endpoint=pIC50 recorded_result="≤ 4.70"

---

# Test target: UniProt:Q12851
# Sequence (Q12851 1-820): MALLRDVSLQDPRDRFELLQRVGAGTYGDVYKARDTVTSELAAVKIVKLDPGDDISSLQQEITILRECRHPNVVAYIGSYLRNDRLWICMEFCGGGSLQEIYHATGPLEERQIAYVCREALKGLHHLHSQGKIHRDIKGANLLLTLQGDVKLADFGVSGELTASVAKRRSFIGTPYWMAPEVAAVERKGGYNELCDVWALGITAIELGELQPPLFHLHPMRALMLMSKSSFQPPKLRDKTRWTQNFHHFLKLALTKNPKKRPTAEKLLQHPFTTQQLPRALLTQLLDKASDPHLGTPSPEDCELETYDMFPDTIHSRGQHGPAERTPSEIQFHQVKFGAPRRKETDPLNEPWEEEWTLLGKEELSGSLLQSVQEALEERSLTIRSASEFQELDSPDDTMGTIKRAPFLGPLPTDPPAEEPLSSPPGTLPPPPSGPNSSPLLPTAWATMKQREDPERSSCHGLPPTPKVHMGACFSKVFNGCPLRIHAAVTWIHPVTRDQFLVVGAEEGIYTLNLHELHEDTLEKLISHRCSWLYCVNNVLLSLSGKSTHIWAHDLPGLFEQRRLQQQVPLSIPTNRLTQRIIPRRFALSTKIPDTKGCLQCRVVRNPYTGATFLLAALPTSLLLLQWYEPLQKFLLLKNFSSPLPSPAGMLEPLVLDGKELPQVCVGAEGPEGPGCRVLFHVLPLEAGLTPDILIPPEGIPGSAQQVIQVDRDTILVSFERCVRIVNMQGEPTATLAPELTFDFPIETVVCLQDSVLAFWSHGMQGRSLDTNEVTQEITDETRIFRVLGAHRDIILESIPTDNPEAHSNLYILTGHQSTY
# Test: biochemical
# Set-up: species or system HEK293/K-562/placenta mixed human extract; Kinobeads chemoproteomic competition binding, quantified by TMT LC-MS/MS, dose response up to 20 uM
pIC50: −log10 of the molar value.
Reported endpoint: pIC50

item_smiles=COc1nc(N[C@H]2CC[C@H](NS(=O)(=O)CC(C)C)CC2)nc2[nH]nc(N3CCOC[C@H]3C)c12 reported_endpoint=pIC50 recorded_result="≤ 4.70"

---

# Test target: PKN2 (Homo sapiens)
# Test: biochemical
# Set-up: species or system HEK293/K-562/placenta mixed human extract; Kinobeads chemoproteomic competition binding, quantified by TMT LC-MS/MS, dose response up to 20 uM
Reported endpoint: IC50

item_smiles=COc1ccccc1-c1n[nH]c2nc(N[C@H]3CC[C@H](NS(=O)(=O)CCC(F)(F)F)CC3)nc(OC)c12 test_target="PKN2 (Homo sapiens)" recorded_result="≥ 20 µM"

---

# Test target: TBK1 (Homo sapiens, UniProt Q9UHD2)
# Sequence (Q9UHD2 whole entry): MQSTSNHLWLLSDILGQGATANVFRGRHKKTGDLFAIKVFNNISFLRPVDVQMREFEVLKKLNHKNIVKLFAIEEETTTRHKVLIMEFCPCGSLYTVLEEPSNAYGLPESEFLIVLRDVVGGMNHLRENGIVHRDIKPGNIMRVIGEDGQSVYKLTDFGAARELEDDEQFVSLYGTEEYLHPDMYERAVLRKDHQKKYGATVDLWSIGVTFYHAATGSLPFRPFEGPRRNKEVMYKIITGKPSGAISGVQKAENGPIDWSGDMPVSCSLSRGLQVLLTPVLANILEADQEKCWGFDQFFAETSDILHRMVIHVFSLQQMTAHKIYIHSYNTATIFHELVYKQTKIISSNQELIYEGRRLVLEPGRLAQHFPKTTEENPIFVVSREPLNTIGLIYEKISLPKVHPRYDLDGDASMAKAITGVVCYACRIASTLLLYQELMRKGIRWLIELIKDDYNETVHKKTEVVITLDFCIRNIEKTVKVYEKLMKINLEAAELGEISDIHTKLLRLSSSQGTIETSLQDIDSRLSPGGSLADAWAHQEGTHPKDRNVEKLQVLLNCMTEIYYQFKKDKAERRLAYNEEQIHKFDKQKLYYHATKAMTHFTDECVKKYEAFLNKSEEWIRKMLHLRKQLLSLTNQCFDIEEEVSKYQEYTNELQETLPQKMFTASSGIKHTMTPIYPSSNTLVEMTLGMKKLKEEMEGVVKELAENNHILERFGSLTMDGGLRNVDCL
# Test: biochemical
# Parameters: species or system HEK293/K-562/placenta mixed human extract; Kinobeads chemoproteomic competition binding, quantified by TMT LC-MS/MS, dose response up to 20 uM
pIC50: −log10 of the molar value.
Reported endpoint: pIC50

item_smiles=COc1nc(N[C@H]2CC[C@H](NS(=O)(=O)CC(C)C)CC2)nc2[nH]nc(N3CCOC[C@H]3C)c12 reported_endpoint=pIC50 recorded_result="≤ 4.70"

---

# Test target: MAP3K4 (Homo sapiens, UniProt Q9Y6R4)
# Test: biochemical
# Parameters: species or system HEK293/K-562/placenta mixed human extract; Kinobeads chemoproteomic competition binding, quantified by TMT LC-MS/MS, dose response up to 20 uM
Reported endpoint: IC50

compound="COc1nc(N[C@H]2CC[C@H](NS(=O)(=O)CC(C)C)CC2)nc2[nH]nc(N3CCOC[C@H]3C)c12 [compound 39]" test_target="MAP3K4 (Homo sapiens, UniProt Q9Y6R4)" reported_endpoint=IC50 recorded_result="≥ 20 µM"

---

# Test target: CDC42BPB (Homo sapiens, UniProt Q9Y5S2)
# Test: biochemical
# Set-up: species or system HEK293/K-562/placenta mixed human extract; Kinobeads chemoproteomic competition binding, quantified by TMT LC-MS/MS, dose response up to 20 uM
pIC50: −log10 of the molar value.
Reported endpoint: pIC50

compound="COc1ccccc1-c1n[nH]c2nc(N[C@H]3CC[C@H](NS(=O)(=O)CCC(F)(F)F)CC3)nc(OC)c12 [compound 31]" recorded_result="≤ 4.70"

---

# Test target: IKBKE (Homo sapiens, UniProt Q14164)
# Sequence (Q14164 whole entry): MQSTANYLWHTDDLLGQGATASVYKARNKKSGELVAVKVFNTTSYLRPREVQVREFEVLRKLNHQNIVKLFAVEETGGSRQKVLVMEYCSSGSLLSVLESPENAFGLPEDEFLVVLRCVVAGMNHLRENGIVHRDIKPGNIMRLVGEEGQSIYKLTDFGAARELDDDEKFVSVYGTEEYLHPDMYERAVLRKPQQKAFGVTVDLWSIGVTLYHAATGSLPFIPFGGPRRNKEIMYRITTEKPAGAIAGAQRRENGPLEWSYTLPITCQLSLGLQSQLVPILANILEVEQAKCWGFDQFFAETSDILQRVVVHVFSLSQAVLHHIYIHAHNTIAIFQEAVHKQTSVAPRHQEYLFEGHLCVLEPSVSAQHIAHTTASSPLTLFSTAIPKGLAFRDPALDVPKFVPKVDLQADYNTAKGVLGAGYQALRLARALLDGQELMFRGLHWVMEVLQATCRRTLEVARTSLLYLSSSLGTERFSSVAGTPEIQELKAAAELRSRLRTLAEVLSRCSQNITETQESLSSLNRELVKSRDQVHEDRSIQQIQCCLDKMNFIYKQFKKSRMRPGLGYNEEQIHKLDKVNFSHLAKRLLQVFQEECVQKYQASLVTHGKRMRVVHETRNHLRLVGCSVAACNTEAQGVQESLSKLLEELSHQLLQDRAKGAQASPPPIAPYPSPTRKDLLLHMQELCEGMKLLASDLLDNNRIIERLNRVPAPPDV
# Test: biochemical
# Set-up: species or system HEK293/K-562/placenta mixed human extract; Kinobeads chemoproteomic competition binding, quantified by TMT LC-MS/MS, dose response up to 20 uM
Reported endpoint: IC50

compound="COc1nc(N[C@H]2CC[C@H](NS(=O)(=O)CC(C)C)CC2)nc2[nH]nc(N3CCOC[C@H]3C)c12 [compound 39]" recorded_result="≥ 20 µM"

---

# Test target: PIK3R4 (Homo sapiens, UniProt Q99570)
# Test: biochemical
# Parameters: species or system HEK293/K-562/placenta mixed human extract; Kinobeads chemoproteomic competition binding, quantified by TMT LC-MS/MS, dose response up to 20 uM
Reported endpoint: IC50

item_smiles=COc1nc(N[C@H]2CC[C@H](NS(=O)(=O)CC(C)C)CC2)nc2[nH]nc(N3CCOC[C@H]3C)c12 recorded_result="≥ 20 µM"

---

# Test target: PRKCD (Homo sapiens)
# Test: biochemical
# Parameters: species or system HEK293/K-562/placenta mixed human extract; Kinobeads chemoproteomic competition binding, quantified by TMT LC-MS/MS, dose response up to 20 uM
pIC50: −log10 of the molar value.
Reported endpoint: pIC50

compound="COc1nc(N[C@H]2CC[C@H](NS(=O)(=O)CC(C)C)CC2)nc2[nH]nc(N3CCOC[C@H]3C)c12 [compound 39]" recorded_result="≤ 4.70"

---

# Test target: CSNK2A2 (Homo sapiens)
# Test: biochemical
# Design: species or system HEK293/K-562/placenta mixed human extract; Kinobeads chemoproteomic competition binding, quantified by TMT LC-MS/MS, dose response up to 20 uM
Reported endpoint: IC50

compound="COc1nc(N[C@H]2CC[C@H](NS(=O)(=O)CC(C)C)CC2)nc2[nH]nc(N3CCOC[C@H]3C)c12 [compound 39]" recorded_result="≥ 20 µM"

---

# Test target: CHUK (Homo sapiens)
# Test: biochemical
# Set-up: species or system HEK293/K-562/placenta mixed human extract; Kinobeads chemoproteomic competition binding, quantified by TMT LC-MS/MS, dose response up to 20 uM
Reported endpoint: IC50

item_smiles=COc1ccccc1-c1n[nH]c2nc(N[C@H]3CC[C@H](NS(=O)(=O)CCC(F)(F)F)CC3)nc(OC)c12 reported_endpoint=IC50 recorded_result="≥ 20 µM"

---

# Test target: HIPK1 (Homo sapiens)
# Sequence (Q86Z02 whole entry): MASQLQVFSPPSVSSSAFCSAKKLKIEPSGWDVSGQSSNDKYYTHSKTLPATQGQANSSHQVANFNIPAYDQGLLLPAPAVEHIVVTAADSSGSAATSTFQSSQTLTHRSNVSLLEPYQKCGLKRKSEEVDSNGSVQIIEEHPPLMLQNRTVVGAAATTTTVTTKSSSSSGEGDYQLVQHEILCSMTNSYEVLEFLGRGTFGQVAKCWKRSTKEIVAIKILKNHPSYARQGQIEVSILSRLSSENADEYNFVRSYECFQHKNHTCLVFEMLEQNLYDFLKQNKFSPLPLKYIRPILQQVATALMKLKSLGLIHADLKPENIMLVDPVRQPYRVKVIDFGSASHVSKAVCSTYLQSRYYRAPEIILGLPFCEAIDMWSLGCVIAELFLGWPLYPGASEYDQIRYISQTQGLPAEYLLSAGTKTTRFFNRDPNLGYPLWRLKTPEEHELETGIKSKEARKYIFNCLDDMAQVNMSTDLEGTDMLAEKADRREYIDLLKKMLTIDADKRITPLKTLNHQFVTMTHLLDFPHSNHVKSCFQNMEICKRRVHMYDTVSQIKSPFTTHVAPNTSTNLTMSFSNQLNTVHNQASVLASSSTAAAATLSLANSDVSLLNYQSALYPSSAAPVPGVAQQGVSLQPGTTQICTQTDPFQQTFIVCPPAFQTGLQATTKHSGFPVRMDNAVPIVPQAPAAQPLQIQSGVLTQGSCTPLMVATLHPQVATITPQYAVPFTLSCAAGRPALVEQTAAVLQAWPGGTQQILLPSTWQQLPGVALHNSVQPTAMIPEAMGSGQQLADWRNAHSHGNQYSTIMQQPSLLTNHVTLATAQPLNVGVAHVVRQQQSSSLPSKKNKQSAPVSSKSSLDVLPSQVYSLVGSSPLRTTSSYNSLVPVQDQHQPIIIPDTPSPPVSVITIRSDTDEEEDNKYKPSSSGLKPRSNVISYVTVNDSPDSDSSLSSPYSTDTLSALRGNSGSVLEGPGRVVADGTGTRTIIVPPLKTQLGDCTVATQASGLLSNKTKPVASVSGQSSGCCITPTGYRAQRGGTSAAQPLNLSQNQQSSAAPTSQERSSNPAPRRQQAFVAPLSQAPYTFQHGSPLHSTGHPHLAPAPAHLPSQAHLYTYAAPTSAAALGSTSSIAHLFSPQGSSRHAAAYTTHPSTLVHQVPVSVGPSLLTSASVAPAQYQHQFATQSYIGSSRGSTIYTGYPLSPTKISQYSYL
# Test: biochemical
# Parameters: species or system HEK293/K-562/placenta mixed human extract; Kinobeads chemoproteomic competition binding, quantified by TMT LC-MS/MS, dose response up to 20 uM
pIC50: −log10 of the molar value.
Reported endpoint: pIC50

item_smiles=COc1ccccc1-c1n[nH]c2nc(N[C@H]3CC[C@H](NS(=O)(=O)CCC(F)(F)F)CC3)nc(OC)c12 recorded_result="≤ 4.70"
